system: WM266-4 cells; assay: Cell based screen for inhibitors of Raf and/or Mek kinase, WM266-4; settings: Homo sapiens, WM 266-4, 96 h, Table 4; four days incubation, SRB
assay-metric: pIC50
Lab note — pIC50 values are minus log10 of concentrations in M.

Reference set (2 entries):
[
  {
    "line-notation": "Cn1ccnc1Sc1ccc(Nc2c(C#N)cnc3cc(C#CCCN4CCOCC4)sc23)cc1Cl",
    "pIC50": 6.46
  },
  {
    "line-notation": "CCN(CC)Cc1ccc(-c2cc3ncc(C#N)c(Nc4ccc(Sc5nccn5C)c(Cl)c4)c3s2)cc1",
    "pIC50": 7.40
  }
]

# next molecule below
In: Consider the molecule shown here: `CN(C)CC#Cc1cc2ncc(C#N)c(Nc3ccc(Sc4nccn4C)c(Cl)c3)c2s1` What is its recorded pIC50?
Out: 7.02

----------
test system: Rat2 fibroblasts stably transformed with v-Src/Hu c-Src fusion gene; assay: Anchorage independent Src-transformed fibroblast proliferation assay; format: cell-based, rat; conditions: Rattus norvegicus, Rat2, Table 3; read-out: Src Cells IC50 μM or % inhib at 10 μM (IC50 values)
assay-metric: log10 IC50 (log10 of the value in µM)
Scale: decimal log of IC50, IC50 in µM.

[
  {
    "line-notation": "COc1cc(Nc2c(C#N)cnc3cc(-c4ccc(CN(C)C)o4)sc23)c(Cl)cc1Cl",
    "assay-metric": "log10 IC50",
    "reported-value": 0.69
  }
]

In: Could you tell me which log10 IC50 is on file for `COc1cc(Nc2c(C#N)cnc3cc(-c4ccc(CN(C)C)s4)sc23)c(Cl)cc1Cl` ?
Out: 0.38

In: Field request: log10 IC50 | item: `COc1cc(Nc2c(C#N)cnc3cc(-c4ccc(CN5CCS(=O)(=O)CC5)cc4)sc23)c(Cl)cc1Cl`
Out: -0.24

In: Field request: log10 IC50 | item: `COc1cc(Nc2c(C#N)cnc3cc(-c4ccc(CN5CCN(Cc6ccccn6)CC5)cc4)sc23)c(Cl)cc1Cl`
Out: -0.04

In: Any idea what its log10 IC50 is? The compound is `COc1cc(Nc2c(C#N)cnc3cc(C#Cc4cnn(CCO)c4)sc23)c(Cl)cc1Cl`
Out: 0.75

In: Returns the measured log10 IC50 for the input compound. Input: `COc1cc(Nc2c(C#N)cnc3cc(-c4ccc(C=O)s4)sc23)c(Cl)cc1Cl`
Out: 0.38

In: Which log10 IC50 reading was recorded for the compound `COc1cc(Nc2c(C#N)cnc3cc(-c4cn[nH]c4)sc23)c(Cl)cc1Cl` ?
Out: 0.51

In: For the compound `COc1cc(Nc2c(C#N)cnc3cc(/C=C/c4ccccc4)sc23)c(Cl)cc1Cl` , what log10 IC50 is on record?
Out: 0.81

In: State the recorded log10 IC50 for this entry: `COc1cc(Nc2c(C#N)cnc3cc(-c4ccc(C5OCCO5)o4)sc23)c(Cl)cc1Cl`
Out: 0.79

In: For the compound `COc1cc(Nc2c(C#N)cnc3cc(-c4cccc(CN(C)C)c4)sc23)c(Cl)cc1Cl` , what log10 IC50 is on record?
Out: 0.18

In: // lookup log10 IC50 for `COc1cc(Nc2c(C#N)cnc3c(-c4ccc(CN5CCN(C)CC5)cc4)csc23)c(Cl)cc1Cl`
Out: 0.51

In: Please give the measured log10 IC50 for this compound: `COc1cc(Nc2c(C#N)cnc3cc(-c4ccc(CN5CCN(C)CC5)cn4)sc23)c(Cl)cc1Cl`
Out: -0.40

In: // lookup log10 IC50 for `COc1cc(Nc2c(C#N)cnc3cc(-c4coc(CN5CCN(C)CC5)c4)sc23)c(Cl)cc1Cl`
Out: -0.52

In: Recorded log10 IC50 of `COc1cc(Nc2c(C#N)cnc3cc(-c4ccc(CNCCSC)cc4)sc23)c(Cl)cc1Cl` , please.
Out: 0.09

In: Could you tell me which log10 IC50 is on file for `COc1cc(Nc2c(C#N)cnc3cc(-c4ccc(CN(C)CCCN(C)C)cc4)sc23)c(Cl)cc1Cl` ?
Out: 0.52

In: For `COc1cc(Nc2c(C#N)cnc3c(-c4ccc(CN(C)C)cc4)csc23)c(Cl)cc1Cl` , what is its reported log10 IC50?
Out: 0.66

In: # input compound: `COc1cc(Nc2c(C#N)cnc3cc(-c4ccc(CN5CC[S+]([O-])CC5)cc4)sc23)c(Cl)cc1Cl` ; wanted: its log10 IC50
Out: -0.33

In: Look up log10 IC50: `COc1cc(Nc2c(C#N)cnc3cc(-c4ccc(C5OCCO5)s4)sc23)c(Cl)cc1Cl`
Out: 0.38

In: What measured log10 IC50 goes with `COc1cc(Nc2c(C#N)cnc3cc(C#Cc4cnn(CCN5CCOCC5)c4)sc23)c(Cl)cc1Cl` ?
Out: -0.15

In: Can you share its log10 IC50? I mean this compound: `COc1cc(Nc2c(C#N)cnc3cc(-c4ccc(CNCCCO)cc4)sc23)c(Cl)cc1Cl`
Out: -0.27

In: Give its log10 IC50 value. Item: `COc1cc(Nc2c(C#N)cnc3cc(C#Cc4cn[nH]c4)sc23)c(Cl)cc1Cl`
Out: -0.09

----------
assay-metric: melting point

Answered examples (8):
[
  {
    "compound": "COc1cc(Nc2c(C#N)cnc3c(Br)csc23)c(Cl)cc1Cl [Example 139]",
    "reported-value": "265 to 266 °C"
  },
  {
    "compound": "COc1cc(Nc2c(C#N)cnc3cc(-c4ccc(N(C)C)cc4)sc23)c(Cl)cc1Cl [Example 73]",
    "reported-value": "255 to 258 °C"
  },
  {
    "compound": "COc1cc(Nc2c(C#N)cnc3cc(-c4ccc(CN5CCN(C)CC5)cn4)sc23)c(Cl)cc1Cl [Example 103]",
    "reported-value": "229 to 232 °C"
  },
  {
    "compound": "CCOc1cc(Nc2c(C#N)cnc3cc(-c4ccc(CN5CCN(C)CC5)cc4)sc23)c(Cl)cc1Cl [Example 123]",
    "reported-value": "227 to 229 °C"
  },
  {
    "compound": "COc1cc(Nc2c(C#N)cnc3cc(-c4ccc(CO)cc4)sc23)c(Cl)cc1Cl [Example 41]",
    "reported-value": "239 to 240 °C"
  },
  {
    "compound": "COc1cc(Nc2c(C#N)cnc3sc(I)cc23)c(Cl)cc1Cl [Example 7]",
    "reported-value": "231 to 233 °C"
  },
  {
    "compound": "COc1cc(Nc2c(C#N)cnc3cc(/C=C/C(=O)N4CCN(C)CC4)sc23)c(Cl)cc1Cl [Example 56]",
    "reported-value": "218 to 220 °C"
  },
  {
    "compound": "Cn1ccnc1Sc1ccc(Nc2c(C#N)cnc3cc(I)sc23)cc1Cl [Example 82]",
    "reported-value": "290 to 291 °C"
  }
]

In: I am curious: what melting point value has been reported for COc1cc(Nc2c(C#N)cnc3cc(-c4coc(C=O)c4)sc23)c(Cl)cc1Cl [Example 138] ?
Out: 223 to 224 °C

In: Any idea what its melting point is? The compound is COc1cc(Nc2c(C#N)cnc3cc(C#Cc4cccnc4)sc23)c(Cl)cc1Cl [Example 35]
Out: 249 to 250 °C

In: Field request: melting point | item: COc1cc(Nc2c(C#N)cnc3c(-c4ccc(CN5CCN(C)CC5)cc4)csc23)c(Cl)cc1Cl [Example 142]
Out: 197 to 198 °C

----------
assay-metric: melting point

[
  {
    "line-notation": "COc1cc(Nc2c(C#N)cnc3cc(-c4csc(CN5CCN(C)CC5)c4)sc23)c(Cl)cc1Cl",
    "melting point": "224 to 226 °C"
  },
  {
    "line-notation": "COc1cc(Nc2c(C#N)cnc3cc(-c4ccc(CNCCC(C)C)cc4)sc23)c(Cl)cc1Cl",
    "melting point": "195 to 197 °C"
  },
  {
    "line-notation": "COc1cc(Nc2c(C#N)cnc3cc(C#C[Si](C)(C)C)sc23)c(Cl)cc1Cl",
    "melting point": "169 to 171 °C"
  },
  {
    "line-notation": "COc1cc(Nc2c(C#N)cnc3cc(-c4csc(CN5CCOCC5)c4)sc23)c(Cl)cc1Cl",
    "melting point": "209 to 212 °C"
  },
  {
    "line-notation": "CN(C)c1ccc(-c2cc3ncc(C#N)c(Nc4ccc(Cl)cc4Cl)c3s2)cc1",
    "melting point": "239 to 241 °C"
  }
]

In: Query (compound): `COc1cc(Nc2c(C#N)cnc3cc(-c4ccc(CN(C)C)o4)sc23)c(Cl)cc1Cl` ; field requested: melting point
Out: 200 to 202 °C

In: # lookup: melting point of `COc1cc(Nc2c(C#N)cnc3cc(-c4ccc(CN5CCN(C)CC5)s4)sc23)c(Cl)cc1Cl`
Out: 200 to 202 °C

In: State the recorded melting point for this entry: `CCCCNCc1ccc(-c2cc3ncc(C#N)c(Nc4cc(OC)c(Cl)cc4Cl)c3s2)cc1`
Out: 167 to 169 °C

In: I am curious: what melting point value has been reported for `COc1cc(Nc2c(C#N)cnc3cc(-c4ccc(C5OCCO5)s4)sc23)c(Cl)cc1Cl` ?
Out: 213 to 217 °C

In: # input compound: `COC(=O)CCCc1cc2c(Nc3cc(OC)c(OC)c(OC)c3)c(C#N)cnc2s1` ; wanted: its melting point
Out: 101 to 103 °C

In: Fill in: melting point of `COc1cc(Nc2c(C#N)cnc3cc(-c4cccc(CN5CCN(C)CC5)c4)sc23)c(Cl)cc1Cl` is ___
Out: 178 to 180 °C

In: Name the reported melting point value associated with the compound `COc1cc(Nc2c(C#N)cnc3cc(C#Cc4ccccn4)sc23)c(Cl)cc1Cl`
Out: 237 to 239 °C

In: # lookup: melting point of `COc1cc(N(C(C)=O)c2c(C#N)cnc3ccsc23)c(Cl)cc1Cl`
Out: 202 to 204 °C

In: For the compound `COc1ccc(C#Cc2cc3ncc(C#N)c(Nc4cc(OC)c(Cl)cc4Cl)c3s2)cc1` , what melting point is on record?
Out: 249 to 250 °C

In: # query: melting point of entry `COc1cc(Nc2c(C#N)cnc3cc(-c4ccc(CNCCCO)cc4)sc23)c(Cl)cc1Cl`
Out: 141 to 143 °C

In: What value of melting point has been recorded for this entry: `COc1cc(Nc2c(C#N)cnc3cc(-c4cc5ccccc5o4)sc23)c(Cl)cc1Cl`
Out: 281 to 282 °C

In: // melting point lookup, key: `COc1cc(Nc2c(C#N)cnc3cc(C#CCN(C)C)sc23)c(Cl)cc1Cl`
Out: 164 to 166 °C
